system: MRSA; assay: IC50 / growth inhibition of photodynamic inactivation, MRSA; assay type: cell-based, methicillin-resistant S. aureus; settings: Staphylococcus aureus, 10 min, pH 2.5, LED 520 nm, 35 mW/cm^2, 10 min
pIC50: −log10 of the molar value.
Quantity: pIC50

>>> print(df.to_string())
                         chemical_structure  readout_value
0  O=C(O)c1ccccc1-c1c2cc(I)c(=O)c(I)c-2oc2c(I)c(O)c(I)cc12           6.47

----------
test system: Salmonella; assay: IC50 of photodynamic inactivation, Salmonella; details: 10 min, pH 2.5, read-out: IC50 (Salmonella)
pIC50: −log10 of the molar value.
Quantity: pIC50

>>> df
                                   molecule  quantity  readout_value
0  O=C(O)c1ccccc1-c1c2cc(I)c(=O)c(I)c-2oc2c(I)c(O)c(I)cc12 [TIF, 2′,4′,5′,7′-tetraiodofluorescein]     pIC50           6.20
